- assay: Kinetic solubility of the compound at pH 7.4 by HPLC-UV method
- Type: physicochemical
- condition.set: buffer, read-out: Kinetic_solubility
quantity.name: solubility kinetic (µg/mL)
Expressed in µg/mL, but write only the number.

Request: Using the record for "CCCn1c(=O)c(C(=O)NC23CC4CC(CC(C4)C2)C3)c(O)c2nn(CCOC(C)=O)cc21" , report its solubility kinetic.
Result: 1.1

Request: Ok, now "CC(=O)OCCCCn1c(=O)c(C(=O)NC23CC4CC(CC(C4)C2)C3)c(O)c2nn(C)cc21"
Result: 1.3

Request: Repeat with "CCCCCn1c(=O)c(C(=O)NC23CC4CC(CC(C4)C2)C3)c(O)c2nn(C)cc21"
Result: 1.9

Request: Another compound: "Cn1cc2c(n1)c(O)c(C(=O)NC13CC4CC(CC(O)(C4)C1)C3)c(=O)n2CCCCF"
Result: 37.6

All figures here come from ChEMBL document CHEMBL4616678.
